These measurements were taken from paper PMC5896266.

- TEST SYSTEM: UniProt:P03956
- Sequence (P03956 100-469): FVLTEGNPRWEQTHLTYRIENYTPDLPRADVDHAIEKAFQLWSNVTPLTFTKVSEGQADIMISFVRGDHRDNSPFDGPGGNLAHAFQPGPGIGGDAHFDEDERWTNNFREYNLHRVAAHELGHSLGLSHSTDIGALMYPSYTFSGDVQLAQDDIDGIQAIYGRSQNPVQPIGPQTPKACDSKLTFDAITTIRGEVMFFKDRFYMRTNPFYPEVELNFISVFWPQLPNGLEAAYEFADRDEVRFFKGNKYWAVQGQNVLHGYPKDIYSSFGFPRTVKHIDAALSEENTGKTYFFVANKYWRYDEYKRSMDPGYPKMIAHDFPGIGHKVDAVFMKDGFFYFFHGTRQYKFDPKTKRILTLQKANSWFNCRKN
- EXPERIMENTAL DETAILS: MMP-1 inhibition (inhibitory profile)
- Format: biochemical
- CONDITIONS: Table 2
PROPERTY: IC50 (µM)
Kindly provide the numeric value in µM only, without the unit symbol.

Q. Suppose we examine the compound Cc1ccc(CN(Cc2ccc(OCc3ccccc3)cc2)Cc2nc(C(=O)O)c[nH]2)cc1 ; what IC50 value has been reported?
A. 33

Q. Suppose we examine the compound O=C(O)c1csc(CN(Cc2ccc(OCc3ccccc3)cc2)Cc2cccc(F)c2)n1 ; what IC50 value has been reported?
A. 6.8

Q. Suppose we examine the compound O=C(O)c1c[nH]c(CN(Cc2ccc(F)cc2)Cc2ccc(OCc3ccccc3)cc2)n1 ; what IC50 value has been reported?
A. 10

Q. Suppose we examine the compound O=C(O)c1c[nH]c(CN(Cc2ccc(F)cc2)Cc2ccc(OC(c3ccccc3)c3ccccc3)cc2)n1 ; what IC50 value has been reported?
A. 16

Q. Suppose we examine the compound O=C(O)c1csc(CN(Cc2ccc(F)cc2)Cc2ccc(OCc3ccncc3)cc2)n1 ; what IC50 value has been reported?
A. 47

Q. Suppose we examine the compound O=C(O)c1csc(CN(Cc2ccc(OCc3ccccc3)cc2)C(c2ccccc2)c2ccccc2)n1 ; what IC50 value has been reported?
A. 26

Q. Suppose we examine the compound O=C(O)c1csc(CN(Cc2ccc(OCc3ccccc3)cc2)Cc2cccnc2)n1 ; what IC50 value has been reported?
A. 240

Q. Suppose we examine the compound O=C(O)c1csc(CN(Cc2ccncc2)Cc2ccc(OCc3ccccc3)cc2)n1 ; what IC50 value has been reported?
A. 115
